Molecular target: T1, Human IL2Rγ extracellular domain expressed with a C-terminal myc-myc-hexahistidine tag (human)
T1 construct: also called hIL-2Rg-MMH; hIL-2RG-MMH
T1 chain: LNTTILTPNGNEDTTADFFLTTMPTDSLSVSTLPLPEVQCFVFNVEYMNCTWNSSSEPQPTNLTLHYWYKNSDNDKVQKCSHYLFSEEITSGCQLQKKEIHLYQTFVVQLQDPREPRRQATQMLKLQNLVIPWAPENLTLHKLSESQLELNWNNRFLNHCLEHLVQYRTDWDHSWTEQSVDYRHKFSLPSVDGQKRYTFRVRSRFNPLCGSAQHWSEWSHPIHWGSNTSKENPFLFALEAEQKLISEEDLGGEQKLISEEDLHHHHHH
Assay: SPR, captured mAb, 25C, dissociation pH 7.4
QUANTITY: t1/2 (h)
Report only the number, with the unit h understood.

Entry H4H12886P (antibody, human IgG4 S228P, kappa, V domains shown, anti-IL2Rgamma mAb expressed with human IgG4 Fc) VH: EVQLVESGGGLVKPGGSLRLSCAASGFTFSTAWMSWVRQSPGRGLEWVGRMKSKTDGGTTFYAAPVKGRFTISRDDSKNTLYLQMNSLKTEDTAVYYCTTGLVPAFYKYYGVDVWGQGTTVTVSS VL: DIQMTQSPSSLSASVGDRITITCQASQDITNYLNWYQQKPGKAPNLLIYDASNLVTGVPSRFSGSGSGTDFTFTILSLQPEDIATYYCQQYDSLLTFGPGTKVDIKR — recorded t1/2 = 1.25

Entry H4H12884P (antibody, human IgG4 S228P, kappa, V domains shown, anti-IL2Rgamma mAb expressed with human IgG4 Fc) VH: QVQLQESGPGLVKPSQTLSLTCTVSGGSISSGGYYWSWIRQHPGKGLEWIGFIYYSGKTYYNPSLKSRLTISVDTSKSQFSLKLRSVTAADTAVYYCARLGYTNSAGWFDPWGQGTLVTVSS VL: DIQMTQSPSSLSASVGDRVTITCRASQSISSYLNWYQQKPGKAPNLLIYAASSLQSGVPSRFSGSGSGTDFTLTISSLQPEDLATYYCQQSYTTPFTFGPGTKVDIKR — recorded t1/2 = 0.3

Entry H4H12900P (antibody, human IgG4 S228P, kappa, V domains shown, anti-IL2Rgamma mAb expressed with human IgG4 Fc) VH: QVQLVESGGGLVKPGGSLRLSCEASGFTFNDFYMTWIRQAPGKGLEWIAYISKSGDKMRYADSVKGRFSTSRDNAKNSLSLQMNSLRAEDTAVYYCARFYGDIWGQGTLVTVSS VL: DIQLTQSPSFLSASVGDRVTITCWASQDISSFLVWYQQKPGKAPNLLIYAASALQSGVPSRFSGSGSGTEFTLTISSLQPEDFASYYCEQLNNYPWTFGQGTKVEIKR — recorded t1/2 = 1.1
